- Test system: Haemophilus influenzae
- experiment.description: Antibacterial activity against azithromycin-susceptible Haemophilus influenzae ATCC 49247 assessed as reduction in microbial growth by CLSI based two-fold broth dilution method
- Format: functional
experimental.readout: MIC

record.smiles: CC[C@H]1OC(=O)[C@@](C)(F)C(=O)[C@H](C)[C@@H](O[C@@H]2O[C@H](C)C[C@H](N(C)C)[C@H]2O)[C@](C)(OC/C=C/c2ccc3c(c2)c(=O)c(C(=O)O)cn3C2CC2)C[C@@H](C)/C(=N\OC)[C@H](C)[C@H]2OC(=O)O[C@@]21C
result: 2 µg/mL
--
record.smiles: CC[C@H]1OC(=O)[C@@](C)(F)C(=O)[C@H](C)[C@@H](O[C@@H]2O[C@H](C)C[C@H](N(C)C)[C@H]2O)[C@](C)(OC)C[C@@H](C)/C(=N\OCC#Cc2ccc3c(c2)c(=O)c(C(=O)NC)cn3C2CC2)[C@H](C)[C@H]2OC(=O)O[C@@]21C
result: 64 µg/mL
--
record.smiles: CC[C@H]1OC(=O)[C@@](C)(F)C(=O)[C@H](C)[C@@H](O[C@@H]2O[C@H](C)C[C@H](N(C)C)[C@H]2O)[C@](C)(OC)C[C@@H](C)/C(=N\OC/C=C/c2ccc3[nH]cc(C(=O)O)c(=O)c3c2)[C@H](C)[C@H]2OC(=O)O[C@@]21C
result: 32 µg/mL
--
record.smiles: CC[C@H]1OC(=O)[C@@](C)(F)C(=O)[C@H](C)[C@@H](O[C@@H]2O[C@H](C)C[C@H](N(C)C)[C@H]2O)[C@](C)(OC)C[C@@H](C)/C(=N\OCC#Cc2ccc3c(c2)c(=O)c(C(N)=O)cn3CC)[C@H](C)[C@H]2OC(=O)O[C@@]21C
result: 16 µg/mL

----------
- Tested on: Streptococcus pyogenes
- experiment.description: Antibacterial activity against MLS-resistant Streptococcus pyogenes 01-968 expressing inducible ermB gene assessed as reduction in microbial growth by CLSI based two-fold broth dilution method
- Format: functional
experimental.readout: MIC (µg/mL)

record.smiles: CC[C@H]1OC(=O)[C@@](C)(F)C(=O)[C@H](C)[C@@H](O[C@@H]2O[C@H](C)C[C@H](N(C)C)[C@H]2O)[C@](C)(OC)C[C@@H](C)/C(=N\OCC#Cc2ccc([N+](=O)[O-])nc2)[C@H](C)[C@H]2OC(=O)O[C@@]21C
experimental.readout: MIC
value.qualifier: =
result.number: 0.016

record.smiles: CC[C@H]1OC(=O)[C@@](C)(F)C(=O)[C@H](C)[C@@H](O[C@@H]2O[C@H](C)C[C@H](N(C)C)[C@H]2O)[C@](C)(OC)C[C@@H](C)/C(=N\OCC#Cc2ccc3[nH]ccc(=O)c3c2)[C@H](C)[C@H]2OC(=O)O[C@@]21C
experimental.readout: MIC
value.qualifier: ≤
result.number: 0.008

record.smiles: CC[C@H]1OC(=O)[C@@](C)(F)C(=O)[C@H](C)[C@@H](O[C@@H]2O[C@H](C)C[C@H](N(C)C)[C@H]2O)[C@](C)(OC)C[C@@H](C)/C(=N\OC/C=C/c2ccc3ncc(C(=O)O)cc3c2)[C@H](C)[C@H]2OC(=O)O[C@@]21C
experimental.readout: MIC
value.qualifier: =
result.number: 0.062

record.smiles: CC[C@H]1OC(=O)[C@@](C)(F)C(=O)[C@H](C)[C@@H](O[C@@H]2O[C@H](C)C[C@H](N(C)C)[C@H]2O)[C@](C)(OC)C[C@@H](C)/C(=N\OC/C=C/c2ccc3c(c2)c(=O)c(C(N)=O)cn3CC)[C@H](C)[C@H]2OC(=O)O[C@@]21C
experimental.readout: MIC
value.qualifier: ≤
result.number: 0.002

record.smiles: CC[C@H]1OC(=O)[C@@](C)(F)C(=O)[C@H](C)[C@@H](O[C@@H]2O[C@H](C)C[C@H](N(C)C)[C@H]2O)[C@](C)(OC/C=C/c2ccc3c(c2)c(=O)c(C(=O)O)cn3C2CC2)C[C@@H](C)/C(=N\OC)[C@H](C)[C@H]2OC(=O)O[C@@]21C
experimental.readout: MIC
value.qualifier: =
result.number: 0.031

record.smiles: CC[C@H]1OC(=O)[C@@](C)(F)C(=O)[C@H](C)[C@@H](O[C@@H]2O[C@H](C)C[C@H](N(C)C)[C@H]2O)[C@](C)(OC)C[C@@H](C)/C(=N\OCC#Cc2cncc3ccccc23)[C@H](C)[C@H]2OC(=O)O[C@@]21C
experimental.readout: MIC
value.qualifier: =
result.number: 0.5

record.smiles: CC[C@H]1OC(=O)[C@@](C)(F)C(=O)[C@H](C)[C@@H](O[C@@H]2O[C@H](C)C[C@H](N(C)C)[C@H]2O)[C@](C)(OC)C[C@@H](C)/C(=N\OC/C=C/c2cncc(N)c2)[C@H](C)[C@H]2OC(=O)O[C@@]21C
experimental.readout: MIC
value.qualifier: =
result.number: 0.031

record.smiles: CC[C@H]1OC(=O)[C@@](C)(F)C(=O)[C@H](C)[C@@H](O[C@@H]2O[C@H](C)C[C@H](N(C)C)[C@H]2O)[C@](C)(OC/C=C/c2ccc3c(c2)c(=O)c(C(=O)NC)cn3C2CC2)C[C@@H](C)/C(=N\OC)[C@H](C)[C@H]2OC(=O)O[C@@]21C
experimental.readout: MIC
value.qualifier: ≤
result.number: 0.002

record.smiles: CC[C@H]1OC(=O)[C@@](C)(F)C(=O)[C@H](C)[C@@H](O[C@@H]2O[C@H](C)C[C@H](N(C)C)[C@H]2O)[C@](C)(OC/C=C/c2ccc3c(c2)c(=O)c(C(N)=O)cn3CC)C[C@@H](C)/C(=N\OC)[C@H](C)[C@H]2OC(=O)O[C@@]21C
experimental.readout: MIC
value.qualifier: ≤
result.number: 0.002

record.smiles: CC[C@H]1OC(=O)[C@@](C)(F)C(=O)[C@H](C)[C@@H](O[C@@H]2O[C@H](C)C[C@H](N(C)C)[C@H]2O)[C@](C)(OC)C[C@@H](C)/C(=N\OCC#Cc2ccc3c(c2)c(=O)c(C(=O)O)cn3C2CC2)[C@H](C)[C@H]2OC(=O)O[C@@]21C
experimental.readout: MIC
value.qualifier: =
result.number: 0.25

record.smiles: CC[C@H]1OC(=O)[C@@](C)(F)C(=O)[C@H](C)[C@@H](O[C@@H]2O[C@H](C)C[C@H](N(C)C)[C@H]2O)[C@](C)(OC)C[C@@H](C)/C(=N\OCC#Cc2cncc(C#N)c2)[C@H](C)[C@H]2OC(=O)O[C@@]21C
experimental.readout: MIC
value.qualifier: =
result.number: 0.25

record.smiles: CC[C@H]1OC(=O)[C@@](C)(F)C(=O)[C@H](C)[C@@H](O[C@@H]2O[C@H](C)C[C@H](N(C)C)[C@H]2O)[C@](C)(OC)C[C@@H](C)/C(=N\OCCCc2ccc3c(c2)c(=O)c(C(=O)O)cn3C2CC2)[C@H](C)[C@H]2OC(=O)O[C@@]21C
experimental.readout: MIC
value.qualifier: =
result.number: 0.125

record.smiles: CC[C@H]1OC(=O)[C@H](C)[C@@H](O[C@H]2C[C@@](C)(OC)[C@@H](O)[C@H](C)O2)[C@H](C)[C@@H](O[C@@H]2O[C@H](C)C[C@H](N(C)C)[C@H]2O)[C@](C)(O)C[C@@H](C)CN(C)[C@H](C)[C@@H](O)[C@]1(C)O
experimental.readout: MIC
value.qualifier: =
result.number: 8

record.smiles: CC[C@H]1OC(=O)[C@@](C)(F)C(=O)[C@H](C)[C@@H](O[C@@H]2O[C@H](C)C[C@H](N(C)C)[C@H]2O)[C@](C)(OC)C[C@@H](C)/C(=N\OC/C=C/c2ccc3c(c2)c(=O)c(C(=O)NC)cn3CC)[C@H](C)[C@H]2OC(=O)O[C@@]21C
experimental.readout: MIC
value.qualifier: =
result.number: 0.016

record.smiles: CC[C@H]1OC(=O)[C@@](C)(F)C(=O)[C@H](C)[C@@H](O[C@@H]2O[C@H](C)C[C@H](N(C)C)[C@H]2O)[C@](C)(OC)C[C@@H](C)/C(=N\OCC#Cc2cncc(C(N)=O)c2)[C@H](C)[C@H]2OC(=O)O[C@@]21C
experimental.readout: MIC
value.qualifier: =
result.number: 0.125

----------
- Test system: Staphylococcus aureus
- experiment.description: Selectivity ratio of MBC to MIC for MLS/methicillin-resistant Staphylococcus aureus PU 32 expressing inducible ermA gene
- Format: functional
The entries below are paired with their reported Selectivity ratio.
experimental.readout: Selectivity ratio

record.smiles: CC[C@H]1OC(=O)[C@@](C)(F)C(=O)[C@H](C)[C@@H](O[C@@H]2O[C@H](C)C[C@H](N(C)C)[C@H]2O)[C@](C)(OC)C[C@@H](C)/C(=N\OCC#Cc2cncc(N)c2)[C@H](C)[C@H]2OC(=O)O[C@@]21C
result: >8
--
record.smiles: CC[C@H]1OC(=O)[C@@](C)(F)C(=O)[C@H](C)[C@@H](O[C@@H]2O[C@H](C)C[C@H](N(C)C)[C@H]2O)[C@](C)(OC/C=C/c2cncc(C(N)=O)c2)C[C@@H](C)/C(=N\OC)[C@H](C)[C@H]2OC(=O)O[C@@]21C
result: >8

Values were extracted from ChEMBL document CHEMBL4346654.
